The measured values listed here are drawn from patent US20200289144A1.

System: human MRC-5 fibroblasts
Test Summary: Quantitative evaluation of cytotoxicity, viability assay using MU reagent
Assay type: cell-based
Particulars: 30 min (0.5 h) exposure
One threshold, 50%, splits the recorded percentage of cell viability compared to culture medium (100% of viability) values: lower ones are 1 (yes), equal or higher ones are 0 (no).

Solved entries (count: 5):
{"Compound": "Oc1ccccc1", "System Name": "human MRC-5 fibroblasts", "Group": "1 (yes)"}
{"Compound": "O=S(=O)([O-])CCS.[Na+] [Mesna 20%, Sodium 2-mercaptoethanesulfonate]", "System Name": "human MRC-5 fibroblasts", "Group": "1 (yes)"}
{"Compound": "[Cl-].[Na+] [NaCl 7.06%, NaCl]", "System Name": "human MRC-5 fibroblasts", "Group": "1 (yes)"}
{"Compound": "O=S(=O)([O-])CCS.[Na+] [Mesna 10%, Sodium 2-mercaptoethanesulfonate]", "System Name": "human MRC-5 fibroblasts", "Group": "0 (no)"}
{"Compound": "O=S(=O)([O-])CCS.[Na+] [Mesna 5%, Sodium 2-mercaptoethanesulfonate]", "System Name": "human MRC-5 fibroblasts", "Group": "1 (yes)"}

Query block: Is percentage of cell viability compared to culture medium (100% of viability) strictly under 50% for the entry [Cl-].[Na+] [NaCl 1.76%, NaCl] ?
Result block: 0 (no)

Query block: Would you kindly verify if percentage of cell viability compared to culture medium (100% of viability) of [Cl-].[Na+] [NaCl 3.53%, NaCl] is strictly less than 50%?
Result block: 0 (no)
